- Tested on: RPMI-8226 leukemia
- experiment_description: NCI-60 one-dose screen, 48 h
- condition_parameters: 10 µM unless noted
This is part of a sample that, as a whole, favours compounds with a hit. Of some 83,000 tested, about 20% had one in any assay. Activity calls are given as the source filed them. How the source made its calls: active means growth percent below 10; inactive means the rest.
Can you answer with just one of these options? 1.0 = active, 0.0 = inactive

Identify the outcome logged in this assay for the molecule shown: Fc1ccc(NCCS)cc1 0.0

Also need O=C1C=CC(O)=CC1=P(c1ccccc1)(c1ccccc1)c1ccccc1 , thanks. 0.0

And O=[N+]([O-])CC(O)c1ccccc1 (centres undefined) ? 0.0

Another molecule to check: Oc1cc(Cl)ccc1Cc1ccc(Cl)cc1O 0.0

What do you have for O=C(Nc1ccc(Cl)c(Cl)c1)OCc1ccco1 ? 0.0

Also check Nc1cc(-c2ccccc2)ccc1O 1.0

Okay, and CC(C)Nc1ccc(Nc2ccc(NC(C)C)cc2)cc1 ? 0.0

Try the molecule Clc1ccc(Cc2nc3ccccc3s2)cc1 0.0

Would you mind doing CCCCCCCCCCCC[n+]1ccc(CCCCCCCCC)cc1 as well? 1.0

Same read-out for COc1cccc2c1C(=O)c1c(O)c3c(c(O)c1C2=O)C[C@@](O)(C(=O)CO)C[C@@H]3OC1CC(OC(C)=O)C(OC(C)=O)C(C)O1 (some centres undefined) ? 1.0

What about this molecule? CC1(O)CCCCCC1 0.0

Now the same for CC(=O)c1ccc2c(c1)CCc1ccccc1-2 0.0

Same read-out for COC(=O)c1ccc(=O)c2nc3/c(=C/O)c(O)cc(=O)c3[nH]c12 ? 0.0

Do the same for Cc1ccccc1NC(=O)Cc1csc2[n+]1C(=O)/C(=C/c1ccc([N+](=O)[O-])cc1)S2 please 0.0

Next record, please: CCc1cnc2ccccc2c1/C=C/c1ccc(N(C)C)cc1 0.0

Consider next the molecule O=C1C=CC(=O)N1C1CCCCCCCCCCC1 in the same way. 0.0

// repeat for CN(C)c1ccc(/C=C/c2sc3ccc4ccccc4c3[n+]2C)cc1 and report 1.0

Next up: N#CC(I)CS(=O)(=O)c1ccccc1 (centres undefined) 0.0

Another molecule to check: Cc1cc(C(=O)c2ccc(Cl)cc2)ccc1O 0.0

Let us now turn to O=C1C(=O)c2cccnc2-c2ncccc21 1.0

Can you check c1ccc(-c2cc3cc4ccccc4cn3c2)cc1 next? 0.0

Now the molecule CC(C)=CCCC(C)C1=C(O)C(=O)C(C)=CC1=O (centres undefined) 1.0

Would you kindly repeat that for c1csc(-c2[nH]nc3c2CCc2ccccc2-3)c1 ? 0.0

// same read-out, input: COc1cc(-c2ccc(-[n+]3nc(-c4ccc([N+](=O)[O-])cc4)nn3-c3ccc([N+](=O)[O-])cc3)c(OC)c2)ccc1-[n+]1nc(-c2ccc([N+](=O)[O-])cc2)nn1-c1ccc([N+](=O)[O-])cc1 0.0
